FYI, the data here is from patent US20250297004A1.

Target: human Nectin-4 (protein used in the SPR affinity measurements) (human) (UniProt Q96NY8)
Sequence (Q96NY8 32-349 limits assumed): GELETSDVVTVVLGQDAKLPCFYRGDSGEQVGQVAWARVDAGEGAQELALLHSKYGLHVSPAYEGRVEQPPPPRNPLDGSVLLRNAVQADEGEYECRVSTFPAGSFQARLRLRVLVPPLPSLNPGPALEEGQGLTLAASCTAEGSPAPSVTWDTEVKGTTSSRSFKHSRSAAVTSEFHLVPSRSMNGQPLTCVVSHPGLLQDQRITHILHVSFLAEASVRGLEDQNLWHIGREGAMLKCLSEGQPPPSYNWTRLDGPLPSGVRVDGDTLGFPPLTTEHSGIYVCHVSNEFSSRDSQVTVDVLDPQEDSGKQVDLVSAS
Test: SPR, human IgG1
Kindly supply the reported kon values for the records listed here.
One number for each entry, in M⁻¹ s⁻¹.

H5L3 (antibody, human IgG1, kappa, V domains shown, Tested as human IgG1) VH: QVQLVQSGAEVKKPGASVKVSCKASGYIFTSYWMHWVKQRPGQGLEWMGEIDPSDSYTNYNQKFKGRVTMTLDKSTSTTYMELSSLRSEDTAVYYCARGYGNYGDYWGQGTLVTVSS VL: DVVMTQSALSNPVTPGEPASISCRSSKSLLHSNGITYLYWYLQKPGQSPQLLIYQMSNLASGVPDRFSSSGSGTDFTLKISRVEAEDVGVYYCAQNLELPWTFGGGTKVEIKR	250000
H4L2 (antibody, human IgG1, V domains shown, human IgG1 isotype) VH: QVQLVQSGAEVKKPGASVKVSCKASGYIFTSYWMHWVKQAPGQGLEWMGEIDPSDSYTNYNQKFKGRVTMTLDKSTSTTYMELSSLRSEDTAVYYCARGYGNYGDYWGQGTLVTVSS VL: DVVMTQSPLSNPVTPGEPASISCRSSKSLLHSNGITYLYWYLQKPGQSPQLLIYQMSNLASGVPDRFSSSGSGTDFTLKISRVEAEDVGVYYCAQNLELPWTFGGGTKVEIK	200000
H7L1 (antibody, human IgG1, V domains shown, human IgG1 isotype) VH: QVQLVQSGAEVKKPGASVKVSCKASGYIFTSYWMHWVKQRPGQGLEWIGEIDPSDSYTNYNQKFKGRVTLTLDKSTSTTYMELSSLRSEDTAVYYCARGYGNYGDYWGQGTLVTVSS VL: DVVMTQSPLSLPVTPGEPASISCRSSKSLLHSNGITYLYWYLQKPGQSPQLLIYQMSNLASGVPDRFSSSGSGTDFTLKISRVEAEDVGVYYCAQNLELPWTFGGGTKVEIK	200000
H7L3 (antibody, human IgG1, V domains shown, human IgG1 isotype) VH: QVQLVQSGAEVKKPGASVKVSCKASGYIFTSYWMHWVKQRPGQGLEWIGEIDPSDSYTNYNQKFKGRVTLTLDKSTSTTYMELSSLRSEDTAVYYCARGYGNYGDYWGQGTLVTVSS VL: DVVMTQSALSNPVTPGEPASISCRSSKSLLHSNGITYLYWYLQKPGQSPQLLIYQMSNLASGVPDRFSSSGSGTDFTLKISRVEAEDVGVYYCAQNLELPWTFGGGTKVEIK	110000

H1L0 (antibody, human IgG1, V domains shown, human IgG1 isotype) VH: QVQLVQSGAEVKKPGASVKVSCKASGYTFTSYWMHWVRQAPGQGLEWMGEIDPSDSYTNYNQKFKGRVTMTLDTSTSTTYMELSSLRSEDTAVYYCARGYGNYGDYWGQGTLVTVSS VL: DIVMTQSPLSLPVTPGEPASISCRSSKSLLHSNGITYLYWYLQKPGQSPQLLIYQMSNLASGVPDRFSGSGSGTDFTLKISRVEAEDVGVYYCAQNLELPWTFGGGTKVEIK has a reported kon of 110000
